- targetUnderTest: Flpin-293-PDE4B2 cells (Homo sapiens)
- Sequence (Q07343 1-564 isoform Q07343-2): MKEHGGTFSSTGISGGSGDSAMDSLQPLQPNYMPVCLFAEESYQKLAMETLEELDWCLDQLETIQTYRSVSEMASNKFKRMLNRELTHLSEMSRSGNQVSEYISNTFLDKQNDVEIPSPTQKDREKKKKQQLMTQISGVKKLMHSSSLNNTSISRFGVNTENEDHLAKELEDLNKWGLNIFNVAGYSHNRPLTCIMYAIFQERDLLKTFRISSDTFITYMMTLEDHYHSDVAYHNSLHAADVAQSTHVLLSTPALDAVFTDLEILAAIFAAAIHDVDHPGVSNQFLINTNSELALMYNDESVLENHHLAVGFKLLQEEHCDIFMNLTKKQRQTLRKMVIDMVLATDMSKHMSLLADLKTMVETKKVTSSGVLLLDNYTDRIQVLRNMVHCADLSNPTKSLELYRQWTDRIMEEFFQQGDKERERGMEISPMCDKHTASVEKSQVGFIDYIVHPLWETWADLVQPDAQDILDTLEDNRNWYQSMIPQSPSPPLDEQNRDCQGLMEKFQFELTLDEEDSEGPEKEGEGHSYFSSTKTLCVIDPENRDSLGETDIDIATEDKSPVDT
- methodDescription: cell-based
- measurementConditions: read-out: Cell Inhibition % @1 nM, 1 nM, Flpin-293-PDE4B2 cells

# compound, inhibition at 0.001 µM (%)
records = [
    ("[O-][S+]1CCc2nc(N3CC[C@@H]4c5ccc(Br)cc5OC[C@H]4C3)nc(NC3(CO)CCC3)c21 (stereo partly drawn)", 7.72),
    ("[O-][S+]1CCc2nc(N3CCc4cc(N5C[C@H]6COC[C@H]6C5)ccc4C3)nc(NC3(CO)CCC3)c21 (stereo partly drawn)", 8.53),
    ("[O-][S+]1CCc2nc(N3CCc4cc(N5CCOCC5)ccc4C3)nc(NC3(CO)CCC3)c21 (stereo not drawn)", 7.35),
]
